# protocol text: Octanol-water partition coefficient, log Pow of the compound
value type: logP
Give your answer as a number; write no unit.

INPUT: What value of logP has been reported for the following compound? CN/C(=N/CC1CCOC1)N[N+](=O)[O-] (stereo unspecified)
OUTPUT: -0.549

----------
# protocol text: Toxicity in male po dosed Mus musculus (mouse)
# reported conditions: in vivo
value type: LD50 (mg/kg)
Kindly provide the numeric value in mg/kg only, without the unit symbol.

INPUT: Need LD50, item CN/C(=N/CC1CCOC1)N[N+](=O)[O-] (stereo unspecified) [DINOTEFURAN]
OUTPUT: 2450

These data points were gathered from ChEMBL document CHEMBL3046816.
